- Tested on: HCT116 cell line
- assay-text: Anti-proliferative activity, Alamar Blue assay
- Format: cell-based, human
- measurement-parameters: Homo sapiens, HCT-116, 72 h
Counter-ions that a name gives are not always drawn.
Below: a set of entries, each annotated with reported IC50.
readout-label: IC50

compound: CC(C)c1cc(C(=O)N2Cc3ccc(C(=O)N4CCNCC4)cc3C2)c(O)cc1O [Example 54, hydrochloride]
subject-of-test: HCT116 cell line
readout-label: IC50
result: < 1 µM
--
compound: CC(C)c1cc(C(=O)N2Cc3ccccc3C2)c(O)cc1O
subject-of-test: HCT116 cell line
readout-label: IC50
result: < 1 µM

----------
- subject-of-test: human Hsp90α N-terminal domain (Homo sapiens)
Counter-ions that a name gives are not always drawn.

compound: CC(C)c1cc(C(=O)N2Cc3ccc(C(=O)N4CCNCC4)cc3C2)c(O)cc1O [Example 54, hydrochloride]
subject-of-test: human Hsp90α N-terminal domain (Homo sapiens)
Kd: < 0.1 µM
//
compound: CC(C)c1cc(C(=O)N2Cc3ccc(CN4CCCCC4)cc3C2)c(O)cc1O
subject-of-test: human Hsp90α N-terminal domain (Homo sapiens)
Kd: < 0.1 µM
//
compound: CC(C)c1cc(C(=O)N2Cc3cc(O)c(Cl)cc3C2)c(O)cc1O
subject-of-test: human Hsp90α N-terminal domain (Homo sapiens)
Kd: < 0.1 µM
